// values below are reported Emax
# measurement target: human GLP-1R (Homo sapiens, UniProt P43220)
# Sequence (P43220 24-463): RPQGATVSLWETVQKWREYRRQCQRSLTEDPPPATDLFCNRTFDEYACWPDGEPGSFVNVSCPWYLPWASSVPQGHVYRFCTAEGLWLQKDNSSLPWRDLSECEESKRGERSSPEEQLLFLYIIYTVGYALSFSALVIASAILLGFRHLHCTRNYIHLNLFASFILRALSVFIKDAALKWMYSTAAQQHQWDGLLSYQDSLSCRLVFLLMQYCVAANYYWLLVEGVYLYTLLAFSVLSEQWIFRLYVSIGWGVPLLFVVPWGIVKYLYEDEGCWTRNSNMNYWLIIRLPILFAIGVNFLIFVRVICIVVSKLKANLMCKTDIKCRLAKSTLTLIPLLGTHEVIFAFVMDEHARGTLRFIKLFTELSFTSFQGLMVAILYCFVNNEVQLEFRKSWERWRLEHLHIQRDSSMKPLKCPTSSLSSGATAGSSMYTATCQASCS
# protocol text: Human GLP-1 Receptor HEK293 cell cAMP assay, 104 fmol/mg GLP-1R expression density
# Assay type: cell-based
# Set-up: expressed in transfected cells; host or cells: HEK293 clonal cell line
# condition parameters: HEK293 cell line with 104 fmol/mg expression density of GLP-1R; percent of maximal response to GLP-1(7-36)NH2; arithmetic mean; read-out: Emax % (SEM, n), intracellular cAMP response
Express the result in % but write the number alone.

Solved cases (6 shown):
COCCOc1cc(C(=O)O)cc2c1nc(Cc1cc(F)c3cc1COCCc1cc(ccc1C#N)COc1cccc-3n1)n2C[C@@H]1CCO1
90
COc1cc(-c2nnn[nH]2)cc2c1nc(Cc1ccc3cc1OCCCc1cc(C#N)ccc1COc1cccc-3n1)n2C[C@@H]1CCO1
46.4
O=C(O)c1ccc2nc(Cc3ccc4cc3OCCCc3cc(-c5ccc(CO)cc5)ccc3COc3cccc-4n3)n(C[C@@H]3CCO3)c2c1
76.6
COc1cc(C(=O)O)cc2c1nc(Cc1cc(C)c3cc1OCCCc1cc(F)ccc1COc1cccc-3n1)n2C[C@@H]1CCO1
80.9
CN(C)C(=O)COc1cc(C(=O)O)cc2c1nc(Cc1ccc3cc1OCCCc1cc(C#N)ccc1COc1cccc-3n1)n2C[C@@H]1CCO1
32.9
O=C(O)c1ccc2nc(Cc3ccc4cc3OCCCc3cc(CO)ccc3COc3cccc-4n3)n(C[C@@H]3CCO3)c2c1
62.1

Request: Input Cc1cn(-c2ccc3c(c2)CCCOc2cc(ccc2Cc2nc4ccc(C(=O)O)cc4n2C[C@@H]2CCO2)-c2cccc(n2)OC3)cn1 , output reported Emax.
Result: 90.4

Request: Supply reported Emax belonging to this compound: COc1ccc(-c2ccc3c(c2)CCCOc2cc(ccc2Cc2nc4ccc(C(=O)O)cc4n2C[C@@H]2CCO2)-c2cccc(n2)OC3)cn1
Result: 59.2

Request: Give reported Emax value for N#Cc1ccc2c(c1)CCOCc1cc(ccc1Cc1nc3ccc(C(=O)O)cc3n1C[C@@H]1CCO1)-c1cccc(n1)OC2
Result: 83

Request: Provide Emax value for the following compound: COc1cc(C(=O)O)cc2c1nc(Cc1cc(C)c3cc1OCCCc1cc(C#N)ccc1COc1cccc-3c1)n2C[C@@H]1CCO1
Result: 82.8

Request: Note Emax for the compound shown: Cn1ccc(-c2ccc3c(c2)CCCOc2cc(ccc2Cc2nc4ccc(C(=O)O)cc4n2C[C@@H]2CCO2)-c2cccc(n2)OC3)cc1=O
Result: 9.53

Request: Provide one value: measured Emax of N#Cc1ccc2c(c1)CCCOc1cc(c(F)cc1Cc1nc3c(F)cc(C(=O)O)cc3n1C[C@@H]1CCO1)-c1cccc(n1)OC2
Result: 72

Request: Please give measured Emax of the following entry: N#Cc1ccc2c(c1)CCCOc1cc(ccc1Cc1nc3c(OCCNCC(F)(F)F)cc(C(=O)O)cc3n1C[C@@H]1CCO1)-c1cccc(n1)OC2
Result: 18.3

---

# measurement target: human GLP-1R (Homo sapiens, UniProt P43220)
# protocol text: Human GLP-1 Receptor HEK293 cell cAMP assay, 581 fmol/mg GLP-1R expression density
# Format: cell-based
# Set-up: expressed in transfected cells; host or cells: HEK293 clonal cell line
# condition parameters: HEK293 cell line with 581 fmol/mg expression density of GLP-1R; geometric mean; read-out: EC50 nM (SEM, n), intracellular cAMP response, relative EC50
Property: EC50; scope: individual compounds
The response must be a number in nM with no trailing unit.

Cc1cn(-c2ccc3c(c2)CCCOc2cc(ccc2Cc2nc4ccc(C(=O)O)cc4n2C[C@@H]2CCO2)-c2cccc(n2)OC3)cn1
92.5

Request: Please indicate EC50 recorded for O=C(O)c1ccc2nc(Cc3ccc4cc3OCCCc3cc(CO)ccc3COc3cccc-4n3)n(C[C@@H]3CCO3)c2c1
Result: 317

Request: Dear colleague, please send me the reported EC50 for CNCCOc1cc(C(=O)O)cc2c1nc(Cc1ccc3cc1COCCc1cc(Cl)ccc1COc1cccc-3n1)n2C[C@@H]1CCO1 when you can.
Result: 440

Request: Item COCCOc1cc(C(=O)O)cc2c1nc(Cc1ccc3cc1COCCc1cc(ccc1C#N)COc1cccc-3n1)n2C[C@@H]1CCO1 : provide EC50
Result: 1.86

---

As shown below, each of these compounds has a reported EC50 value.
# measurement target: human GLP-1R (Homo sapiens, UniProt P43220)
# protocol text: Human GLP-1 Receptor HEK293 cell cAMP assay, 104 fmol/mg GLP-1R expression density
# Format: cell-based
# Parameters: expressed in transfected cells; host or cells: HEK293 clonal cell line
# condition parameters: HEK293 cell line with 104 fmol/mg expression density of GLP-1R; geometric mean; read-out: EC50 nM (SEM, n), intracellular cAMP response, relative EC50
The reply should be a number in nM, with the unit left off.

Field: example entries. Status: answers known.
COc1cc(C(=O)O)cc2c1nc(Cc1cc(C)c3cc1OCCCc1cc(C(F)(F)F)ccc1COc1cccc-3n1)n2C[C@@H]1CCO1 [Example 16]
4.02
COc1cc(-c2nnn[nH]2)cc2c1nc(Cc1ccc3cc1OCCCc1cc(C#N)ccc1COc1cccc-3n1)n2C[C@@H]1CCO1 [Example 12]
66.3
COc1cc(C(=O)O)cc2c1nc(Cc1ccc3cc1OCCCc1cc(C#N)ccc1COc1cccc-3n1)n2Cc1ncco1 [Example 23]
344
COCCOc1cc(C(=O)O)cc2c1nc(Cc1ccc3cc1COCCc1cc(C#N)ccc1COc1ccc(F)c-3n1)n2C[C@@H]1CCO1 [Example 49]
8.39
O=C(O)c1ccc2nc(Cc3ccc4cc3OCCCc3cc(-n5ccc(=O)c(F)c5)ccc3COc3cccc-4n3)n(C[C@@H]3CCO3)c2c1 [Example 71]
598

Request: Query EC50 for CS(=O)(=O)c1ccc(-c2ccc3c(c2)CCCOc2cc(ccc2Cc2nc4ccc(C(=O)O)cc4n2C[C@@H]2CCO2)-c2cccc(n2)OC3)cc1 [Example 33]
Result: 111

---

# reported Emax; entries follow
# measurement target: human GLP-1R (Homo sapiens)
# protocol text: Human GLP-1 Receptor HEK293 cell cAMP assay, 581 fmol/mg GLP-1R expression density
# Assay type: cell-based
# Design: expressed in transfected cells; host or cells: HEK293 clonal cell line
# condition parameters: HEK293 cell line with 581 fmol/mg expression density of GLP-1R; percent of maximal response to GLP-1(7-36)NH2; arithmetic mean; read-out: Emax % (SEM, n), intracellular cAMP response
Dear colleague, please return just the value in %, with no unit written.

O=C(O)c1ccc2nc(Cc3ccc4cc3OCCCc3cc(-c5cccnc5)ccc3COc3cccc-4n3)n(C[C@@H]3CCO3)c2c1
103
CNC(=O)c1ccc(-c2ccc3c(c2)CCCOc2cc(ccc2Cc2nc4ccc(C(=O)O)cc4n2C[C@@H]2CCO2)-c2cccc(n2)OC3)cc1
90.1
Cn1ncc(-c2ccc3c(c2)CCCOc2cc(ccc2Cc2nc4ccc(C(=O)O)cc4n2C[C@@H]2CCO2)-c2cccc(n2)OC3)n1
98.9
O=C(O)c1ccc2nc(Cc3ccc4cc3OCCCc3cc(-c5ccc(=O)[nH]c5)ccc3COc3cccc-4n3)n(C[C@@H]3CCO3)c2c1
84.1

Request: Tell us which Emax value is on record for CN(C)C(=O)c1ccc(-c2ccc3c(c2)CCCOc2cc(ccc2Cc2nc4ccc(C(=O)O)cc4n2C[C@@H]2CCO2)-c2cccc(n2)OC3)cc1
Result: 107

Request: Could you please provide reported Emax for CN(C)C(=O)COc1cc(C(=O)O)cc2c1nc(Cc1ccc3cc1OCCCc1cc(C#N)ccc1COc1cccc-3n1)n2C[C@@H]1CCO1 ? Thanks!
Result: 62.2

Request: Kindly indicate its recorded Emax. Item: N#Cc1ccc2c(c1)CCCOc1cc(ccc1Cc1nc3ccc(C(=O)O)cc3n1C[C@@H]1CCO1)-c1cccc(n1)OC2
Result: 99.2

---

# measurement target: human GLP-1R (Homo sapiens)
# protocol text: Human GLP-1 Receptor HEK293 cell cAMP assay, 104 fmol/mg GLP-1R expression density
# Type: cell-based
# Set-up: expressed in transfected cells; host or cells: HEK293 clonal cell line
# condition parameters: HEK293 cell line with 104 fmol/mg expression density of GLP-1R; geometric mean; read-out: EC50 nM (SEM, n), intracellular cAMP response, relative EC50
Doc: threshold 300 nM (exclusive). Items with EC50 beneath it return TRUE; others return FALSE.

As a guide, the following entries are already answered.
CN1CCC(Oc2cc(C(=O)O)cc3c2nc(Cc2ccc4cc2OCCCc2cc(C#N)ccc2COc2cccc-4n2)n3C[C@@H]2CCO2)C1 (stereo partly shown)
FALSE
COCCOc1cc(C(=O)O)cc2c1nc(Cc1cc(F)c3cc1CCOCc1cc(ccc1Cl)COc1cccc-3n1)n2C[C@@H]1CCO1
TRUE
COc1cc(C(=O)NS(=O)(=O)CC2CC2)cc2c1nc(Cc1cc(C)c3cc1OCCCc1cc(F)ccc1COc1cccc-3n1)n2C[C@@H]1CCO1
TRUE
CN(C)C(=O)COc1cc(C(=O)O)cc2c1nc(Cc1ccc3cc1OCCCc1cc(C#N)ccc1COc1cccc-3n1)n2C[C@@H]1CCO1
FALSE
COc1cc(C(=O)O)cc2c1nc(Cc1cc(F)c3cc1CCOCc1cc(C#N)ccc1COc1cccc-3n1)n2C[C@@H]1CCO1
TRUE
O=C(O)c1ccc2nc(Cc3ccc4cc3OCCCc3cc(-c5cccnc5)ccc3COc3cccc-4n3)n(C[C@@H]3CCO3)c2c1
FALSE
COc1cc(C(=O)O)cc2c1nc(Cc1cc(C)c3cc1OCCCc1cc(C#N)ccc1COc1cccc-3c1)n2C[C@@H]1CCO1
TRUE
N#Cc1ccc2c(c1)CCCOc1cc(ccc1Cc1nc3ccc(C(=O)O)cc3n1C[C@@H]1CCO1)-c1cccc(n1)OC2
FALSE

Request: I wonder whether N#Cc1ccc2c(c1)COCc1cc(c(F)cc1Cc1nc3ccc(C(=O)O)cc3n1C[C@@H]1CCO1)-c1cccc(n1)OC2 has EC50 below 300 nM. Can you tell?
Result: TRUE

Request: Determine if Cc1cn(-c2ccc3c(c2)CCCOc2cc(ccc2Cc2nc4ccc(C(=O)O)cc4n2C[C@@H]2CCO2)-c2cccc(n2)OC3)cn1 shows EC50 strictly lower than 300 nM.
Result: FALSE

Request: In plain terms, does CCn1cncc1Cn1c(Cc2ccc3cc2OCCCc2cc(C#N)ccc2COc2cccc-3n2)nc2ccc(C(=O)O)cc21 come in under 300 nM for EC50?
Result: TRUE

Request: Say whether its EC50 is strictly beneath 300 nM. Entry: COCCOc1cc(C(=O)O)cc2c1nc(Cc1cc(F)c3cc1COCCc1cc(Cl)cc(F)c1COc1cccc-3n1)n2C[C@@H]1CCO1
Result: TRUE
